TARGET ENTITY: Histone deacetylase 1 (Homo sapiens)
Sequence (Q13547 whole entry): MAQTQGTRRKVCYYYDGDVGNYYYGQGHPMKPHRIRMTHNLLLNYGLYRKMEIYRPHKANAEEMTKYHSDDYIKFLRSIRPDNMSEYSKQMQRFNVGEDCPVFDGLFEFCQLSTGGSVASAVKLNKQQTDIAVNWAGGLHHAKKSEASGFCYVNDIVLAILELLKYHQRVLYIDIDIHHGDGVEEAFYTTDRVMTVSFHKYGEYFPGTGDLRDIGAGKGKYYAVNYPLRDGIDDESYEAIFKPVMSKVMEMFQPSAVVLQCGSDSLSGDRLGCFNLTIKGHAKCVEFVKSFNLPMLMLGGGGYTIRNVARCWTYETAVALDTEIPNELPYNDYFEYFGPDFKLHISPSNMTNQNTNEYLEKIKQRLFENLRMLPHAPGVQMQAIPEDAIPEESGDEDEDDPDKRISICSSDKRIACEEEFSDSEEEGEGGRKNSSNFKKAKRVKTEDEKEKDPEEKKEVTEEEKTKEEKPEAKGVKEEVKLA
ASSAY REMARKS: Inhibition of human recombinant HDAC1 pre-incubated for 30 mins before Ac-Leu- Gly-Lys(Ac)-AMC substrate addition and measured after 90 mins by fluorescence based assay
Mark each entry YES if its IC50 sits below 30 nM, and NO for all others.

Criterion: IC50 strictly below 30 nM. Is it met by `O=C(NO)c1ccc(NC(=O)C2(c3ccc(Br)cc3)CCCCC2)cc1` ? NO

More entries:
Please let me know if `O=C(NO)c1ccc(NC(=O)C2(c3ccccc3)CCCCC2)cc1` shows IC50 below 30 nM. YES

Take the compound `Nc1ccc(C2(C(=O)Nc3ccc(C(=O)NO)cc3)CCOCC2)cc1` and say whether its IC50 is less than 30 nM. YES

Please let me know if `CC(C)(C(=O)Nc1ccc(C(=O)NO)cc1)c1ccccc1` shows IC50 below 30 nM. NO
